System: NCI/ADR-RES ovarian
Test: NCI-60 one-dose screen, 48 h
Conditions: 10 µM unless noted
Compounds without any hit were thinned out: in the full panel of roughly 83,000, 20% have a hit. Active and inactive are the calls of the source. Rule for the calls: active = growth percent below 10; inactive = the rest.
Thanks in advance; please answer with one of these: active, inactive

Query block: Which outcome did this test record for the compound CCCCCCCCCCCCCC1=NC(C)(C)CN1C(C)C ?
Result block: active

Query block: Which outcome did this test record for the compound Cc1ccc(Nc2cccc3ccccc23)cc1 ?
Result block: inactive

Query block: Which outcome did this test record for the compound NC(N)=NC1CCCCC1 ?
Result block: inactive

Query block: Which outcome did this test record for the compound O=C(Nc1ccc(Br)cc1)Nc1cccc(Br)c1 ?
Result block: inactive

Query block: Which outcome did this test record for the compound CCCCCCCCCCCCNC(=O)N[C@H](C(=O)N[C@H]1/C=C/CCNC(=O)/C=C/[C@H](C)NC1=O)C(C)C ?
Result block: inactive

Query block: Which outcome did this test record for the compound O=C1NN(C(=O)c2ccccc2)C(c2ccc(Cl)c(Cl)c2)=C/C1=C\c1ccccc1[N+](=O)[O-] ?
Result block: inactive

Query block: Which outcome did this test record for the compound CCC(=O)NC1=C(Cl)C(=O)C(NC(=O)CC)=C(Cl)C1=O ?
Result block: inactive

Query block: Which outcome did this test record for the compound COC(=O)CSc1ccc(Cl)cc1 ?
Result block: inactive

Query block: Which outcome did this test record for the compound CC(C)=CC[C@@H]1CC2(CC=C(C)C)C(=O)C(OC3(C(=O)c4ccccc4)C(=O)C4(CC=C(C)C)C[C@@H](CC=C(C)C)C(C)(C)C(CC=C(C)C)(C4=O)C3=O)(C(=O)c3ccccc3)C(=O)C(CC=C(C)C)(C2=O)C1(C)C (stereo not given in full) ?
Result block: active

Query block: Which outcome did this test record for the compound N=C(N)c1ccc(-c2ccc(-c3cccs3)s2)cc1F ?
Result block: active

Query block: Which outcome did this test record for the compound CCNC(=O)c1ccc2c(c1)nc(-c1ccc(Cl)cc1)n2-c1cc(C(C)(C)C)[nH]n1 ?
Result block: active

Query block: Which outcome did this test record for the compound COc1cc(C2CC(=O)Nc3c2cnn3C)cc(OC)c1OC (stereo not given) ?
Result block: inactive

Query block: Which outcome did this test record for the compound COc1ccc(C2=NNC(c3ccc(Oc4nc5c(c(=O)n(C)c(=O)n5C)n4C)c(OC)c3)C2)cc1 (stereo not given) ?
Result block: inactive

Query block: Which outcome did this test record for the compound COc1cc(OC)c(C(=O)/C=C/c2cccc(OC(C)=O)c2)cc1CC=C(C)C ?
Result block: inactive

Query block: Which outcome did this test record for the compound COc1ccc(-c2cc(C(=O)Nc3ccc(Br)cc3)nc3[nH]c(=O)sc23)cc1 ?
Result block: inactive

Query block: Which outcome did this test record for the compound N=C(N)c1ccc(-c2ccc(-c3ccco3)o2)cc1F ?
Result block: inactive

Query block: Which outcome did this test record for the compound COc1cc(CN2CCC(N3CCCC3=O)c3ccccc32)cc(OC)c1OC (stereo not given) ?
Result block: inactive

Query block: Which outcome did this test record for the compound CCCCCCCCCCCCNC(=O)N[C@H](C(=O)N[C@H]1/C=C/OCCNC(=O)/C=C/[C@H](C(C)C)NC1=O)C(C)C ?
Result block: inactive

Query block: Which outcome did this test record for the compound Oc1c(C(Nc2ccccc2Br)c2ccccc2)ccc2cccnc12 (stereo not given) ?
Result block: active

Query block: Which outcome did this test record for the compound OC(COCc1ccccc1)COCc1ccccc1 ?
Result block: inactive

Query block: Which outcome did this test record for the compound CC1=CCC2C1CC=C(C)C(CC[C@H]1[C@@](C)(O)CCC3OC(C)(C)[C@H](OC(=O)c4ccccc4)CC[C@@]31C)C2(C)C (stereo not given in full) ?
Result block: inactive

Query block: Which outcome did this test record for the compound O=C(/C=C/c1ccccc1Br)c1cccc(OCCCCOc2cccc(C(=O)/C=C/c3ccccc3Br)c2)c1 ?
Result block: inactive

Query block: Which outcome did this test record for the compound COc1ccc(C2c3cccn3-c3ccccc3N2C(C)=O)cc1 (stereo not given) ?
Result block: inactive

Query block: Which outcome did this test record for the compound COC(=O)[C@@H](Cc1c[nH]c2ccccc12)NC(=O)/C=C/c1ccccc1 ?
Result block: active

Query block: Which outcome did this test record for the compound CCCCCCCCCCCC1=NC(C)(C)CN1CCO ?
Result block: inactive

Query block: Which outcome did this test record for the compound CCOC(=O)C1OC2(CCCC2)OC1C(=O)OCC (stereo not given) ?
Result block: inactive

Query block: Which outcome did this test record for the compound COc1ccc(/C=C/c2nc3ccccc3c(=O)n2-c2ccc(C#Cc3ccc(C(C)(C)C)cc3)cc2C)c(OC)c1 ?
Result block: inactive

Query block: Which outcome did this test record for the compound O=C(N/N=C/c1ccc([N+](=O)[O-])o1)c1ccc(O)cc1 ?
Result block: inactive

Query block: Which outcome did this test record for the compound COc1ccc(-c2cnnn2-c2nonc2-n2cccc2)cc1 ?
Result block: active

Query block: Which outcome did this test record for the compound C=CCOC(=O)C1=C(C)NC2=C(C(=O)CCC2)C1c1ccc(F)cc1 (stereo not given) ?
Result block: inactive

Query block: Which outcome did this test record for the compound CC(=O)O[C@H]1CC[C@]2(C)[C@H]3CC=C4[C@@H]5CC(C)(C)CC[C@]5(C(=O)OCC(COC(=O)C(Cl)Cl)(COC(=O)C(Cl)Cl)NC(=O)C(Cl)Cl)CC[C@@]4(C)[C@]3(C)CC[C@H]2C1(C)C ?
Result block: inactive

Query block: Which outcome did this test record for the compound N/C(=N\O)c1ncc(-c2ccc(C(F)(F)F)cc2)c(NC2CCCCCC2)n1 ?
Result block: active

Query block: Which outcome did this test record for the compound CCOC(=O)N1C2CCC(C2)N1C(=O)OCC ?
Result block: inactive

Query block: Which outcome did this test record for the compound CCOC(=O)c1cc(N)nc2ccccc12 ?
Result block: inactive

Query block: Which outcome did this test record for the compound COc1cccc(/C(C)=N/NC(=O)CSc2nc3ccccc3c(=O)n2CCc2ccc(S(N)(=O)=O)cc2)c1 ?
Result block: inactive

Query block: Which outcome did this test record for the compound O=C(CCl)Nc1cc(O)c2c(c1)C(=O)c1cccc(O)c1C2=O ?
Result block: inactive

Query block: Which outcome did this test record for the compound CCCCCCCCCCCCCC ?
Result block: inactive

Query block: Which outcome did this test record for the compound Cc1cccc(N=NC(=S)NNc2cccc(C)c2)c1 ?
Result block: inactive

Query block: Which outcome did this test record for the compound C=C1C(=O)O[C@H]2[C@H]1CC/C(COC(=O)NCc1c[nH]c3ccc(OC)cc13)=C\CC[C@@]1(C)O[C@@H]21 ?
Result block: inactive

Query block: Which outcome did this test record for the compound O=C1OCC2=C1C(c1ccccc1)c1cc3c(cc1N2CCO)OCO3 (stereo not given) ?
Result block: active
